Origin of the recorded values: ChEMBL document CHEMBL1909512

- assay-comment: Volume of distribution at steady state in rat at 1 mg/kg, iv
- Assay type: ADME, organism-based
- Design: dose 1 mg/kg, route intravenous
- test-context: in vivo, read-out: Vdss
readout: Vd (L/kg)
Numeric only. Scale: L/kg

These recorded examples may help you get a feel for the data.
[[record]]
record_smiles = "Cc1ccc2c(N)noc2c1-c1ccc2c(c1)NC(=O)C21CCOCC1"
uom = "L/kg"
reported_result = 2

[[record]]
record_smiles = "Cc1nnc(-c2ccc(C)c(-c3ccc4c(c3)NC(=O)C43CCOCC3)c2)[nH]1"
uom = "L/kg"
reported_result = 1

[[record]]
record_smiles = "Cc1nnc(-c2ccc(C)c(-c3ccc4c(c3)NC(=O)C43CCN(S(C)(=O)=O)CC3)c2)[nH]1"
uom = "L/kg"
reported_result = 1.75


Query: # input compound: `Cc1ccc2c(NC3CC3)noc2c1-c1ccc2c(c1)NC(=O)C21CCOCC1` ; wanted: its Vd
Response: 0.8

* * *

- target-under-test: High affinity nerve growth factor receptor (Homo sapiens)
- Sequence (P04629 whole entry): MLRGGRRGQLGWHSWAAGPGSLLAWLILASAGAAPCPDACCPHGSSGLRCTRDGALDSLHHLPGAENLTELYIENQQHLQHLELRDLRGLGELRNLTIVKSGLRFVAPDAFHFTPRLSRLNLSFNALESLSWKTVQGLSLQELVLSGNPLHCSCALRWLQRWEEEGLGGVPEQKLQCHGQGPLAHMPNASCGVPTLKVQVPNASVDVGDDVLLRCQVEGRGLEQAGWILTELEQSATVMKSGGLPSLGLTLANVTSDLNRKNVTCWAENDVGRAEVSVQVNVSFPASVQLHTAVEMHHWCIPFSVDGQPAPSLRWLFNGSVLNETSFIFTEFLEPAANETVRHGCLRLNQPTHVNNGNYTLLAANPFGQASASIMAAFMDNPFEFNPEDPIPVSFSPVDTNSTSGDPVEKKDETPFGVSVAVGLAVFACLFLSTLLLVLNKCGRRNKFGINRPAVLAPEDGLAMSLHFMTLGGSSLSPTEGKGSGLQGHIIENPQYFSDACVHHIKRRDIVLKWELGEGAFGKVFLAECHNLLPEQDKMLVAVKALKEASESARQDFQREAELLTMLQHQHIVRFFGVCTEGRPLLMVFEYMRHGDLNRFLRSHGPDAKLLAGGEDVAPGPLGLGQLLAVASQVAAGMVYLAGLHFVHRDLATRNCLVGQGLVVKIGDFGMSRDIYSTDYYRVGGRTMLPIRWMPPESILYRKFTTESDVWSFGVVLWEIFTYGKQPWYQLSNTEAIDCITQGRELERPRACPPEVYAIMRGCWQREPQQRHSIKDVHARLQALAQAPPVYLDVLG
readout: pIC50
Please treat pIC50 as minus the base-10 logarithm of the molar concentration.

Query: Request - read-out pIC50 | tested on High affinity nerve growth factor receptor (Homo sapiens) | compound `Cc1nnc(-c2ccc(C)c(-c3ccc4c(c3)NC(=O)C43CCOCC3)c2)[nH]1`
Response: 5.11

* * *

- target-under-test: 5-hydroxytryptamine receptor 1B (Homo sapiens)
- Sequence (P28222 whole entry): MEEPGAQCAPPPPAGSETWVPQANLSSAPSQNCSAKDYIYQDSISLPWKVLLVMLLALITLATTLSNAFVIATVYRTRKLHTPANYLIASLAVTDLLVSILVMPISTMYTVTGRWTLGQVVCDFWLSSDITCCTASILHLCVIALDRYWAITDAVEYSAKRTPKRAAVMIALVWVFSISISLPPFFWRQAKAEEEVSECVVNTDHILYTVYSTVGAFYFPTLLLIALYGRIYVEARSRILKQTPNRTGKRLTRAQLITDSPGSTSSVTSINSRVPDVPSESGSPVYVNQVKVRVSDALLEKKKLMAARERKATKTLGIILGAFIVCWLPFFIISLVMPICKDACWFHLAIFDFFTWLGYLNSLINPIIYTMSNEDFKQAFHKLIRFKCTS
- assay-comment: Inhibition of 5-HT1B
readout: pIC50
Scale note: pIC50 = -log10(concentration in M).

Query: // fetch 5-hydroxytryptamine receptor 1B (Homo sapiens) pIC50 for `Cc1nnc(-c2ccc(C)c(-c3ccc4c(c3)NC(=O)C43CCOCC3)c2)[nH]1`
Response: 5.00

* * *

Recorded metabolised at 0.5 h, 5 µM values for a group of molecules are listed next.
- assay-comment: Metabolic stability in rat liver microsomes assessed as compound turnover at 5 uM after 30 mins in presence of NADPH
- Format: ADME, Microsome
- test-context: read-out: Drug metabolism
Report the figure in % without appending any unit label.

Query: Which metabolised at 0.5 h, 5 µM is listed for `Cc1nnc(-c2ccc(C)c(-c3ccc4c(c3)NC(=O)C43CCC(F)(F)CC3)c2)[nH]1` ?
Response: 5

Query: Item under review: `Cc1ccc2c(NC3CC3)noc2c1-c1ccc2c(c1)NC(=O)C21CCOCC1` . Reported metabolised at 0.5 h, 5 µM?
Response: 18

Query: Fill in the blank: the reported metabolised at 0.5 h, 5 µM of `Cc1ccc2c(NC3CC3)noc2c1-c1ccc2c(c1)NC(=O)C21CCC(F)(F)CC1` is ____.
Response: 25

* * *

- target-under-test: Cytochrome P450 2C19 (Homo sapiens, UniProt P33261)
- Sequence (P33261 whole entry): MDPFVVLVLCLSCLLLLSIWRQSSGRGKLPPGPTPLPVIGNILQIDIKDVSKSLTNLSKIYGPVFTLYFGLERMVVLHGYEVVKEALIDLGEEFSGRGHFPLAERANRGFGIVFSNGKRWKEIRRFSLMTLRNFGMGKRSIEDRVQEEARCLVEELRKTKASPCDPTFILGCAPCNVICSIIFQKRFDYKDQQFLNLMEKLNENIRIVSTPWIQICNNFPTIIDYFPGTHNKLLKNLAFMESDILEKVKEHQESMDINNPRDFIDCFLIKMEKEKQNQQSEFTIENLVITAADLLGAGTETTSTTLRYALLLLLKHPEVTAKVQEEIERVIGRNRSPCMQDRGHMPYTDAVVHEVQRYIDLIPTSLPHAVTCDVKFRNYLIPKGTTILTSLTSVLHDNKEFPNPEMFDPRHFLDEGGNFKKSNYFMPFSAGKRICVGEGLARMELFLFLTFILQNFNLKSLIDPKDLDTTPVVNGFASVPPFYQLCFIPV
- assay-comment: Inhibition of human CYP2C19
- Format: ADME
readout: IC50

Query: May I ask what IC50 has been recorded for `Cc1nnc(-c2ccc(C)c(-c3ccc4c(c3)NC(=O)C43CCOCC3)c2)[nH]1` ?
Response: > 25 µM

* * *

- assay-comment: Cmax in rat at 1 mg/kg, iv
- Type: ADME, organism-based
- Set-up: dose 1 mg/kg, route intravenous
- test-context: in vivo
readout: Cmax (ng/mL)
Hi! Could you send only the number? It should be in ng/mL, unit omitted.

Example results:
[[record]]
record_smiles = "Cc1nnc(-c2ccc(C)c(-c3ccc4c(c3)NC(=O)C43CCN(S(C)(=O)=O)CC3)c2)[nH]1"
reported_result = 1300

[[record]]
record_smiles = "Cc1ccc2c(N)noc2c1-c1ccc2c(c1)NC(=O)C21CCOCC1"
reported_result = 752

[[record]]
record_smiles = "Cc1ccc2c(NC3CC3)noc2c1-c1ccc2c(c1)NC(=O)C21CCOCC1"
reported_result = 1480


Now examine the next entry.
Query: Please report the recorded Cmax for `Cc1nnc(-c2ccc(C)c(-c3ccc4c(c3)NC(=O)C43CCOCC3)c2)[nH]1` .
Response: 1720

* * *

- assay-comment: Half life in rat at 1 mg/kg, iv
- Type: ADME, organism-based
- Design: dose 1 mg/kg, route intravenous
- test-context: in vivo
Reported half-life values are given for each entry in this list.
Give the value in h but do not write h after it.

[[record]]
record_smiles = "Cc1ccc2c(N)noc2c1-c1ccc2c(c1)NC(=O)C21CCOCC1"
reported_result = 1.9

[[record]]
record_smiles = "Cc1nnc(-c2ccc(C)c(-c3ccc4c(c3)NC(=O)C43CCN(S(C)(=O)=O)CC3)c2)[nH]1"
reported_result = 3.8

[[record]]
record_smiles = "Cc1ccc2c(NC3CC3)noc2c1-c1ccc2c(c1)NC(=O)C21CCOCC1"
reported_result = 2.9


Query: Recorded half-life of `Cc1nnc(-c2ccc(C)c(-c3ccc4c(c3)NC(=O)C43CCOCC3)c2)[nH]1` , please.
Response: 3.1

* * *

Papp A→B at 12.5 µM values by entry
- assay-comment: Apparent passive permeability from apical to basolateral side of the human Caco2 cells at 12.5 uM
- Format: ADME, cell-based
- test-context: Caco-2
Numeric answer only, unit ×10⁻⁶ cm/s assumed.

Before answering, review these 4 worked examples.
[[record]]
record_smiles = "Cc1ccc2c(NC3CC3)noc2c1-c1ccc2c(c1)NC(=O)C21CCC(F)(F)CC1"
reported_result = 10

[[record]]
record_smiles = "Cc1nnc(-c2ccc(C)c(-c3ccc4c(c3)NC(=O)C43CCN(S(C)(=O)=O)CC3)c2)[nH]1"
reported_result = 2

[[record]]
record_smiles = "Cc1ccc2c(N)noc2c1-c1ccc2c(c1)NC(=O)C21CCOCC1"
reported_result = 28

[[record]]
record_smiles = "Cc1nnc(-c2ccc(C)c(-c3ccc4c(c3)NC(=O)C43CCOCC3)c2)[nH]1"
reported_result = 18


Next, consider the following compound.
Query: Suppose we examine the compound `Cc1ccc2c(NC3CC3)noc2c1-c1ccc2c(c1)NC(=O)C21CCOCC1` ; what Papp A→B at 12.5 µM value has been reported?
Response: 26

* * *

- assay-comment: Clearance in rat at 1 mg/kg, iv
- Type: ADME, organism-based
- Design: dose 1 mg/kg, route intravenous
- test-context: in vivo
readout: clearance (mL/min/kg)
Supply the numeric figure in mL/min/kg, leaving out any unit text.

[[record]]
record_smiles = "Cc1nnc(-c2ccc(C)c(-c3ccc4c(c3)NC(=O)C43CCN(S(C)(=O)=O)CC3)c2)[nH]1"
readout = "clearance"
reported_result = 17.2

[[record]]
record_smiles = "Cc1nnc(-c2ccc(C)c(-c3ccc4c(c3)NC(=O)C43CCOCC3)c2)[nH]1"
readout = "clearance"
reported_result = 4.2

[[record]]
record_smiles = "Cc1ccc2c(NC3CC3)noc2c1-c1ccc2c(c1)NC(=O)C21CCOCC1"
readout = "clearance"
reported_result = 3.2


Query: # query: clearance of entry `Cc1ccc2c(N)noc2c1-c1ccc2c(c1)NC(=O)C21CCOCC1`
Response: 13.8

* * *

- assay-comment: Cmax in rat at 10 mg/kg, po
- Format: ADME, organism-based
- Set-up: dose 10 mg/kg, route oral
- test-context: in vivo
readout: Cmax (ng/mL)
Express your answer in ng/mL, writing the number without its unit.

Example compounds with recorded Cmax:
[[record]]
record_smiles = "Cc1ccc2c(N)noc2c1-c1ccc2c(c1)NC(=O)C21CCOCC1"
uom = "ng/mL"
reported_result = 141

[[record]]
record_smiles = "Cc1nnc(-c2ccc(C)c(-c3ccc4c(c3)NC(=O)C43CCOCC3)c2)[nH]1"
uom = "ng/mL"
reported_result = 1100


// switching to the query compound
Query: What value of measured Cmax is listed for `Cc1ccc2c(NC3CC3)noc2c1-c1ccc2c(c1)NC(=O)C21CCOCC1` ?
Response: 479

* * *

- assay-comment: Metabolic stability in rat liver microsomes assessed as compound turnover at 5 uM after 30 mins in presence of NADPH
- Format: ADME, Microsome
- test-context: read-out: Drug metabolism
readout: metabolised at 0.5 h, 5 µM (%)
Numeric answer only, unit % assumed.

[[record]]
record_smiles = "Cc1nnc(-c2ccc(C)c(-c3ccc4c(c3)NC(=O)C43CCCC3)c2)[nH]1"
reported_result = 15

[[record]]
record_smiles = "Cc1ccc2c(N)noc2c1-c1ccc2c(c1)NC(=O)C21CCOCC1"
reported_result = 9


Proceed to the following item.
Query: Endpoint output: metabolised at 0.5 h, 5 µM of `Cc1nnc(-c2ccc(C)c(-c3ccc4c(c3)NC(=O)C43CCOCC3)c2)[nH]1` . Value?
Response: 23
